# tested_target: recombinant rat PAI-1 (Rattus norvegicus)
# Sequence (P20961 24-402): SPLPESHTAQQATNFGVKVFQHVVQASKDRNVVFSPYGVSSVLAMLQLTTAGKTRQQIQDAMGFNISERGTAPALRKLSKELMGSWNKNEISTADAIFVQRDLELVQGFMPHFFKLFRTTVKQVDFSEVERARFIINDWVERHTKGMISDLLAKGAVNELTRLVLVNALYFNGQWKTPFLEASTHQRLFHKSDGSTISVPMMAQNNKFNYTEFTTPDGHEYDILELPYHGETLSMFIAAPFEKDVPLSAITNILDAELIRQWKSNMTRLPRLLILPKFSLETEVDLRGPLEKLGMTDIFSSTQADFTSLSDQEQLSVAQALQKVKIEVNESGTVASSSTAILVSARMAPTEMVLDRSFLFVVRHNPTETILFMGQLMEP
# assay_procedure: biochemical
# condition_notes: read-out: Inhibition Rate of PAI-1 Activity (%)
assay_metric: inhibition at 0.3 µM (%)
State just the number; it will be interpreted in %.

Quote inhibition at 0.3 µM reported for "CC(C)(C)c1ccc(COc2ccc(-c3ccc(OC(F)(F)F)cc3)cc2OCC(=O)O)cc1" please.
0

Supply measured inhibition at 0.3 µM of "CC(C)(C)c1ccc(CN(C(=O)C(=O)O)c2cccc(Oc3ccc(OC(F)(F)F)cc3)c2)cc1" in your reply.
0

Look up and state reported inhibition at 0.3 µM for "CCCCOc1ccc(-c2ccc(OC(F)(F)F)cc2)cc1N(CCCCc1ccccc1)C(=O)C(=O)O"
3

Hello, please tell me recorded inhibition at 0.3 µM for this one: "CC(C)(Oc1cc(-c2ccc(OC(F)(F)F)cc2)ccc1OCCCCc1ccccc1)C(=O)O"
2

Return inhibition at 0.3 µM (reported value) for this molecule: "CC(C)(C)c1ccc(CN(C(=O)C(=O)O)c2ccc(-c3ccc(OC(F)(F)F)cc3)cc2)cc1"
2

Provide inhibition at 0.3 µM value for the following molecule: "CCCOc1ccc(N(Cc2ccc(C(C)(C)C)cc2)C(=O)C(=O)O)cc1-c1ccc(OC(F)(F)F)cc1"
3

Supply recorded inhibition at 0.3 µM for "CC(C)(C)c1ccc(COc2c(CCC(=O)O)cccc2-c2ccc(OC(F)(F)F)cc2)cc1" here.
0

Supply inhibition at 0.3 µM value. Item: "CCCCCOc1ccc(-c2ccc(OC(F)(F)F)cc2)cc1N(CCCCc1ccccc1)C(=O)C(=O)O"
9
